From: ChEMBL document CHEMBL1143565

Tested System: Cyclin-dependent kinase 4/cyclin D (Homo sapiens)
Test Details: Inhibition of [32P]ATP binding to Cyclin dependant kinase 4-cyclin D
Field: pIC50. Provide a value for each of the compounds that follow.
Friendly reminder that pIC50 comes from taking -log10 of the concentration in mol/L.

Request - read-out pIC50 | tested on Cyclin-dependent kinase 4/cyclin D (Homo sapiens) | compound `Cc1cc(=O)n(CCC(C)C)c2nc(Nc3ccc(N4CCNCC4)cc3)ncc12` 5.97

Request - read-out pIC50 | tested on Cyclin-dependent kinase 4/cyclin D (Homo sapiens) | compound `COC(=O)c1c(C)c2cnc(Nc3ccc(N4CCNCC4)cc3)nc2n(C2CCCC2)c1=O` 8.40

Request - read-out pIC50 | tested on Cyclin-dependent kinase 4/cyclin D (Homo sapiens) | compound `Cc1cc(=O)n(C2CCCC2)c2nc(Nc3ccc(N4CCNCC4)cc3)ncc12` 7.85

Request - read-out pIC50 | tested on Cyclin-dependent kinase 4/cyclin D (Homo sapiens) | compound `Cc1c(Cl)c(=O)n(C2CCCC2)c2nc(Nc3ccc(N4CCNCC4)cc3)ncc12` 7.80

Request - read-out pIC50 | tested on Cyclin-dependent kinase 4/cyclin D (Homo sapiens) | compound `Cc1cc(=O)n(C2CCCC2)c2nc(Nc3ccc(N4CCN(C=O)CC4)cc3)ncc12` 6.79

Request - read-out pIC50 | tested on Cyclin-dependent kinase 4/cyclin D (Homo sapiens) | compound `O=c1ccc2cnc(Nc3ccc(N4CCCCC4)cc3)nc2n1C1CCCC1` 8.00

Request - read-out pIC50 | tested on Cyclin-dependent kinase 4/cyclin D (Homo sapiens) | compound `Cc1c(F)c(=O)n(C2CCCC2)c2nc(Nc3ccc(N4CCNCC4)cc3)ncc12` 7.52

Request - read-out pIC50 | tested on Cyclin-dependent kinase 4/cyclin D (Homo sapiens) | compound `Cc1cc(=O)n(C2CCCC2)c2nc(Nc3ccc(N4CCCCC4)cc3)ncc12` 6.74

Request - read-out pIC50 | tested on Cyclin-dependent kinase 4/cyclin D (Homo sapiens) | compound `Cc1cc(=O)n(C2CCCC2)c2nc(Nc3ccc(N4CCOCC4)cc3)ncc12` 6.94
